# target entity: UniProt:P10635
# Sequence (P10635 whole entry): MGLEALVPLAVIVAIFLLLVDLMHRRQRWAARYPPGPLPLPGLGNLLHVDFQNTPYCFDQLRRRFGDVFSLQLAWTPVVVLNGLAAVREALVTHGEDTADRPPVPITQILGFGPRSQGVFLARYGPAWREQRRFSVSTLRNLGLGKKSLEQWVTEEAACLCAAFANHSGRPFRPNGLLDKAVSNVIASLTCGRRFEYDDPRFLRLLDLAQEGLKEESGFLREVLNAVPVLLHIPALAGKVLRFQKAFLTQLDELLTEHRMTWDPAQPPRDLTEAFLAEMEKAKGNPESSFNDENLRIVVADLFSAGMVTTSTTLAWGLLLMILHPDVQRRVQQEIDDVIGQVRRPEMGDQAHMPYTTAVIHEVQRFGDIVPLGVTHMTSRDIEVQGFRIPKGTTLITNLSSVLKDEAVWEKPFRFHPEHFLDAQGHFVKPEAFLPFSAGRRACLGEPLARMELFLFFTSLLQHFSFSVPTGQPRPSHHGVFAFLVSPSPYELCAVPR
# measurement protocol: Direct CYP inhibition in human liver microsomes with marker probe substrates
# condition parameters: read-out: Inhibition, IC50; HLM, CYP2D6 probe substrate
value type: IC50 (nM)

>>> print(df.to_string())
                                   compound  unit_symbol  measured
0  COc1ncccc1Nc1cc2nc3ccccc3n(-c3ccc(OC(F)(F)F)cc3)c-2cc1=NC1CCC(OC)CC1 (stereo not shown)           nM      1600

====

# measurement protocol: Plasma concentration 3 h post dose in murine model of tuberculosis
# Type: in vivo, BALB/c mice infected with M. tuberculosis H37Rv
# condition parameters: female, BALB/c, mouse, plasma, po, TB model, BDQ + TBI-166 group, W8; read-out: Mean plasma concentration at three hours after oral administration
value type: concentration at 3 h

In [3]: df
Out[3]:
                                chem_smiles   measured
0  COc1nc2ccc(Br)cc2cc1[C@@H](c1ccccc1)[C@@](O)(CCN(C)C)c1cccc2ccccc12  889 ng/mL

====

# measurement protocol: Steady-state plasma pharmacokinetics of BDQ, M2 and TBI-166 in BALB/c mice
# condition parameters: read-out: C max, p.o. dosage; Cmax observed at human equivalent dose of 20 mg; plasma, mice
value type: Cmax (nM)

>>> print(df.to_string())
                                   compound  unit_symbol  measured
0  COc1ncccc1Nc1cc2nc3ccccc3n(-c3ccc(OC(F)(F)F)cc3)c-2cc1=NC1CCC(OC)CC1 (stereo not shown)           nM      1190

====

# target entity: UniProt:P05181
# Sequence (P05181 whole entry): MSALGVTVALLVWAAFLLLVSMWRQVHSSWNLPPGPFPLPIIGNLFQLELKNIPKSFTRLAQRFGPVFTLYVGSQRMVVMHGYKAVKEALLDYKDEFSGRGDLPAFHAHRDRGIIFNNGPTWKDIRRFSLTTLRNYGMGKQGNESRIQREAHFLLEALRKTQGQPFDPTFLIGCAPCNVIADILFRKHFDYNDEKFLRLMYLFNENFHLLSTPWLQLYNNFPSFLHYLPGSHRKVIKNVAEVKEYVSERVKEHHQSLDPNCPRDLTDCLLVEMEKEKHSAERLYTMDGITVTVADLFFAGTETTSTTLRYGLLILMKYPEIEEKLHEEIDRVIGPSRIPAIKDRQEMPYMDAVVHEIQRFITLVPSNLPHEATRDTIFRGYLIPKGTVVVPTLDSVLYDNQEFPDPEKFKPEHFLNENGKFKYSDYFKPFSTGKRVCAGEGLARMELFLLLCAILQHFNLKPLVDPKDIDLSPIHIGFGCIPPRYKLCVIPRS
# measurement protocol: Direct CYP inhibition in human liver microsomes with marker probe substrates
# condition parameters: read-out: Inhibition, IC50; HLM, CYP2E1 probe substrate
pIC50: −log10 of the molar value.
value type: pIC50

>>> df
                                   molecule   target_entity  measured
0  COc1ncccc1Nc1cc2nc3ccccc3n(-c3ccc(OC(F)(F)F)cc3)c-2cc1=NC1CCC(OC)CC1 (stereo not shown)  UniProt:P05181      6.03

====

# target entity: CYP1A2 (Homo sapiens)
# Sequence (P05177 whole entry): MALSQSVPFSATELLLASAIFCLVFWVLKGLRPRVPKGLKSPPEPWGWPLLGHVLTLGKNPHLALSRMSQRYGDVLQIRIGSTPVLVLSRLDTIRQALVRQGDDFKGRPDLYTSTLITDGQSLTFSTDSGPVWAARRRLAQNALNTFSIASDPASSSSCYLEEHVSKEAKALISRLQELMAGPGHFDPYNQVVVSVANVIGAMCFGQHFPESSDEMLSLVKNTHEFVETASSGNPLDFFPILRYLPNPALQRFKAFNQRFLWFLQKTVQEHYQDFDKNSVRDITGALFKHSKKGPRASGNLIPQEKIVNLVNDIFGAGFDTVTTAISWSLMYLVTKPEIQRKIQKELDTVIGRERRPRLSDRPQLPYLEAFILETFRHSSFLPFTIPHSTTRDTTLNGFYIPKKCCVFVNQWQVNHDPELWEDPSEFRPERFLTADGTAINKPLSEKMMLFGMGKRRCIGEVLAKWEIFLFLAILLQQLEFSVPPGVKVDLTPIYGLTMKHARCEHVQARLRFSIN
# measurement protocol: Direct CYP inhibition in human liver microsomes with marker probe substrates
# condition parameters: read-out: Inhibition, IC50; HLM, CYP1A2 probe substrate
value type: IC50 (nM)

                                   compound  value_type  measured
0  COc1ncccc1Nc1cc2nc3ccccc3n(-c3ccc(OC(F)(F)F)cc3)c-2cc1=NC1CCC(OC)CC1 (stereo not shown)        IC50       550

====

# measurement protocol: in vivo
# condition parameters: male, BALB/c, mouse, tissue-to-plasma ratio (Kp)
value type: Kp

>>> print(df.to_string())
                                   compound  value_type  measured
0  COc1nc2ccc(Br)cc2cc1[C@@H](c1ccccc1)[C@@](O)(CCN(C)C)c1cccc2ccccc12 [BDQ, Bedaquiline]          Kp      19.7

====

# measurement protocol: Plasma concentration 3 h post dose in murine model of tuberculosis
# Type: in vivo, BALB/c mice infected with M. tuberculosis H37Rv
# condition parameters: female, BALB/c, mouse, plasma, oral, 25 mg/kg, TB model, BDQ group (25 mg/kg), W8; LLOQ 5, 5, 15 ng/mL for BDQ, TBI-166, M2; read-out: Mean plasma concentration at three hours after oral administration
value type: concentration at 3 h

>>> print(df.to_string())
                                chem_smiles            value_type   measured
0  COc1nc2ccc(Br)cc2cc1[C@@H](c1ccccc1)[C@@](O)(CCN(C)C)c1cccc2ccccc12  concentration at 3 h  920 ng/mL
